Target: T1, mouse ANGPTL3/8 complex (mouse, UniProt Q9R182 17-455; Q8R1L8 16-198, limits assumed)
T1 sequence (looked up) 1: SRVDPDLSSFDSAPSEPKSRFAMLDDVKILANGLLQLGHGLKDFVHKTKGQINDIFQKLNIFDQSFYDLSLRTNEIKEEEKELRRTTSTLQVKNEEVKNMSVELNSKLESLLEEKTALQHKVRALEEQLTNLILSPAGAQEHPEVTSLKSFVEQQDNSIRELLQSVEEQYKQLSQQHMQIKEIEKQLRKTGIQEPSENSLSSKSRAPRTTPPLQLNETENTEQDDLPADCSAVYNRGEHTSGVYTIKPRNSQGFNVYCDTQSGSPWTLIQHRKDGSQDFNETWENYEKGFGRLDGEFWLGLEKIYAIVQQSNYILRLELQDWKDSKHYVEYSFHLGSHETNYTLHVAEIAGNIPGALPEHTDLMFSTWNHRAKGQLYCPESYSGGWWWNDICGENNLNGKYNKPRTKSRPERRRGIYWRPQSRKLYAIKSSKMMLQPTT
T1 sequence (looked up) 2: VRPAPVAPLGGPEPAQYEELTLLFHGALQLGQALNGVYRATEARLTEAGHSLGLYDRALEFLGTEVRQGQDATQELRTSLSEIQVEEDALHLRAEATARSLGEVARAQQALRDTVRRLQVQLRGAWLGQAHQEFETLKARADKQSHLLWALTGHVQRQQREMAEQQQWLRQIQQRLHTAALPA
Test: cell-based or functional assay
test_readout: Ab EC50 (nM), derepression of LPL
Note: state the figure and append the unit.

Examples with answers:
{"binder": "Ab with LC variant having a D31S mutation (SEQ ID NO:21) and a HC of SEQ ID NO:6 (antibody, human IgG4 S228P, kappa, F234A L235A, V domains shown, also called D31S Variant Ab; D31S Ab) VH: QVTLKESGPTLVKPTQTLTLTCTFSGFSLSISGVGVGWIRQPPGKALEWLALIYRNDDKRYSPSLKSRLTITKDTSKNQVVLTLTNMDPVDTATYYCARTYSSGWYGNWFDPWGQGTLVTVSS VL: DIVMTQTPLSLPVTPGEPASISCRSSQSLLSSDDGNTYLDWYLQKPGQSPQLLIYMLSYRASGVPDRFSGSGSGTDFTLKISRVEAEDVGIYYCMQRIEFPLTFGGGTKVEIKR", "Ab EC50 (nM), derepression of LPL": "1.79 nM"}
{"binder": "Ab with LC variant having a E99Q mutation (SEQ ID NO:25) and a HC of SEQ ID NO:6 (antibody, human IgG4 S228P, kappa, F234A L235A, V domains shown, also called E99Q Variant Ab; E99Q Ab) VH: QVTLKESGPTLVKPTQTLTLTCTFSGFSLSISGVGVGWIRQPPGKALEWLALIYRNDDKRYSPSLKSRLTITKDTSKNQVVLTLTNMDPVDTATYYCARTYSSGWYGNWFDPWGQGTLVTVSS VL: DIVMTQTPLSLPVTPGEPASISCRSSQSLLDSDDGNTYLDWYLQKPGQSPQLLIYMLSYRASGVPDRFSGSGSGTDFTLKISRVEAEDVGIYYCMQRIQFPLTFGGGTKVEIKR", "Ab EC50 (nM), derepression of LPL": "1.65 nM"}
{"binder": "Ab with LC variant having a D33T mutation (SEQ ID NO:23) and a HC of SEQ ID NO:6 (antibody, human IgG4 S228P, kappa, F234A L235A, V domains shown, also called D33T Ab) VH: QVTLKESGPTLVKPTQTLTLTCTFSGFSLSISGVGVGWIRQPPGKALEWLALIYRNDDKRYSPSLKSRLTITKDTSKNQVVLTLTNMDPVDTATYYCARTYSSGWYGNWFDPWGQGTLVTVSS VL: DIVMTQTPLSLPVTPGEPASISCRSSQSLLDSTDGNTYLDWYLQKPGQSPQLLIYMLSYRASGVPDRFSGSGSGTDFTLKISRVEAEDVGIYYCMQRIEFPLTFGGGTKVEIKR", "Ab EC50 (nM), derepression of LPL": "4.55 nM"}

Shift focus to the following entry.
Query string: Please report the measured Ab EC50 (nM), derepression of LPL for Ab with LC variant having a D33A mutation (SEQ ID NO:22) and a HC of SEQ ID NO:6 (antibody, human IgG4 S228P, kappa, F234A L235A, V domains shown, also called D33A Variant Ab; D33A Ab) VH: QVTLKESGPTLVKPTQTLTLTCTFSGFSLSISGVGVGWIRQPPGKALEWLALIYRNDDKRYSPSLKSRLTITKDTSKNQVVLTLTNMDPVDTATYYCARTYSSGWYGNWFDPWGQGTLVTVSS VL: DIVMTQTPLSLPVTPGEPASISCRSSQSLLDSADGNTYLDWYLQKPGQSPQLLIYMLSYRASGVPDRFSGSGSGTDFTLKISRVEAEDVGIYYCMQRIEFPLTFGGGTKVEIKR
Result string: 4.07 nM
